Where do these numbers come from? They come from ChEMBL document CHEMBL3864162.

# tgt: Autotaxin (Homo sapiens, UniProt Q13822)
# method: Inhibition of ATX in human plasma assessed as decrease in hydrolysis of lysophosphatidylcholine by measuring choline release after 24 hrs by horseradish peroxidase/choline oxidase-coupled assay
# Format: cell-free
pIC50: −log10 of the molar value.
pIC50 below 7 gives No; pIC50 at or above it gives Yes.

mol smiles: C[C@H](NC(=O)CCc1nc2cccnc2n1Cc1ccc(OC(F)F)cc1)c1ccc(Cl)cc1
tgt: Autotaxin (Homo sapiens, UniProt Q13822)
group label: Yes
//
mol smiles: COc1ccc(Cn2c(CCC(=O)N[C@@H](C)c3ccc(Cl)cc3)nc3cccnc32)cc1
tgt: Autotaxin (Homo sapiens, UniProt Q13822)
group label: No
//
mol smiles: O=C(CCc1nc2cccnc2n1Cc1ccccc1)NCc1ccc(Cl)cc1
tgt: Autotaxin (Homo sapiens, UniProt Q13822)
group label: No
//
mol smiles: C[C@H](NC(=O)NCc1nc2cccnc2n1Cc1ccc(F)cc1)c1ccc(Cl)cc1
tgt: Autotaxin (Homo sapiens, UniProt Q13822)
group label: No
//
mol smiles: C[C@H](NC(=O)CCc1nc2ccncc2n1Cc1ccc(OC(F)(F)F)cc1)c1ccc(Cl)cc1
tgt: Autotaxin (Homo sapiens, UniProt Q13822)
group label: Yes
